endpoint: N2 permeability (Barrer)

compound	observed
*c1ccc(-c2ccc(Oc3ccc4c(c3)C3(CC4(C)C)CC(C)(C)c4ccc(Oc5ccc(-c6ccc(N7C(=O)c8ccc(Oc9ccc%10c(c9)C(=O)N(*)C%10=O)cc8C7=O)cc6)cc5C(F)(F)F)cc43)c(C(F)(F)F)c2)cc1 (repeat unit)	1.12
*c1ccc(Oc2ccc(C3(c4ccc(Oc5ccc(N6C(=O)c7ccc(C(c8ccc9c(c8)C(=O)N(*)C9=O)(C(F)(F)F)C(F)(F)F)cc7C6=O)c(C)c5)cc4)OC(=O)c4ccccc43)cc2)cc1C (repeat unit)	1.1
*C(=C(*)c1ccc2c(c1)C(C)(C)c1ccccc1-2)c1cccc(F)c1 (repeat unit)	4200
*C(C(=O)OC(C)C)C(*)C(=O)OC(C)(C)C (repeat unit)	9
*OC(=O)c1ccc(C(=O)Oc2ccc(C3(c4ccc(O*)c(C)c4)OC(=O)c4ccccc43)cc2C)cc1 (repeat unit)	0.15
*C1C(*)C2CC1C1C2C([Si](C)(C)C)C1[Si](C)(C)C (repeat unit)	1240
*CC(*)[Si](C)(C)C (repeat unit)	11
*C(=C(*)c1ccc([Si](C)(C)C)cc1)c1ccc(-c2ccc(C(C)(C)C)cc2)cc1 (repeat unit)	250
*Oc1c(C)cc(*)c(C(=O)c2ccc(C)cc2)c1C (repeat unit)	2.42
*Oc1ccc(C2(c3ccc(OC(=O)c4cccc(C(*)=O)c4)cc3)c3ccccc3-c3ccccc32)cc1 (repeat unit)	0.64
*Oc1ccc(Oc2ccc(C(=O)c3ccc(*)cc3)cc2)cc1C(C)(C)C (repeat unit)	0.217
*c1c(C)c(C)c(N2C(=O)c3ccc(Oc4cc(C)c(Oc5ccc6c(c5)C(=O)N(*)C6=O)c(C)c4C)cc3C2=O)c(C)c1C (repeat unit)	8.1
*c1c(C)cc(-c2cc(C)c(N3C(=O)c4cc5c(cc4C3=O)C3(CC(C)(C)c4cc6c(cc43)C(=O)N(*)C6=O)CC5(C)C)c3ccccc23)c2ccccc12 (repeat unit)	212
*/N=C1/c2ccc(C(c3ccc4c(c3)-c3nc5cc(Oc6ccc(*)c(*)c6)ccc5n3C4=O)(C(F)(F)F)C(F)(F)F)cc2C(=O)N1* (repeat unit)	1.2

###

# CH4 permeability per entry

molecule	CH4 permeability
*C(=C(*)c1ccc2c(c1)Cc1ccccc1-2)c1ccc([Si](C)(C)C)cc1 (repeat unit)	2000 Barrer
*c1ccc(-c2ccc(Oc3ccc4c(c3)C3(CC4(C)C)CC(C)(C)c4ccc(Oc5ccc(-c6ccc(N7C(=O)c8ccc(Oc9ccc%10c(c9)C(=O)N(*)C%10=O)cc8C7=O)cc6)cc5C(F)(F)F)cc43)c(C(F)(F)F)c2)cc1 (repeat unit)	0.41 Barrer
*Oc1ccc(C(C)(C)c2ccc(Oc3c(F)c(F)c(COC(C4CCCC(C(OCc5c(F)c(F)c(*)c(F)c5F)(C(F)(F)F)C(F)(F)F)C4)(C(F)(F)F)C(F)(F)F)c(F)c3F)cc2)cc1 (repeat unit)	0.32 Barrer
*Oc1ccc(-c2c(-c3ccccc3)c(-c3ccccc3)c(-c3ccc4c(c3)Oc3c(C#N)c(*)c(*)c(C#N)c3O4)c(-c3ccccc3)c2-c2ccccc2)cc1O* (repeat unit)	192 Barrer
*CC1CC(C*)C2C1C([Si](O[Si](C)(C)C)(O[Si](C)(C)C)O[Si](C)(C)C)C2[Si](O[Si](C)(C)C)(O[Si](C)(C)C)O[Si](C)(C)C (repeat unit)	215 Barrer

###

# reported log10 of O2 permeability; entries follow
endpoint: log10 of O2 permeability (log10 of the value in Barrer)

molecule	log10 of O2 permeability
*Oc1c(C)cc(-c2cc(C)c(Oc3ccc(S(=O)(=O)c4ccc(*)cc4)cc3)c(C)c2C)c(C)c1C (repeat unit)	0.78
*c1c(C)c(C)c(N2C(=O)c3ccc(C(c4ccc5c(c4)C(=O)N(*)C5=O)(C(F)(F)F)C(F)(F)F)cc3C2=O)c(C)c1C (repeat unit)	1.94
*CCOC(=O)c1ccc(C(=O)O*)cc1 (repeat unit)	-1.35
*CC1CC(*)OCO1 (repeat unit)	-1.62
*Oc1ccc(Oc2ccc(C(=O)c3ccc(*)cc3)cc2)c(-c2cccc(C(F)(F)F)c2)c1 (repeat unit)	-0.42
*c1c(C)c2c(c(N3C(=O)c4ccc(-c5ccc6c(c5)C(=O)N(*)C6=O)cc4C3=O)c1C)C(C)(C)CC2 (repeat unit)	1.92
*CCCC* (repeat unit)	1.05
*C(=C(*)c1ccc2c(c1)Cc1ccccc1-2)c1ccccc1 (repeat unit)	3.33
*c1ccc(Sc2ccc(Sc3ccc(N4C(=O)c5ccc(C(c6ccc7c(c6)C(=O)N(*)C7=O)(C(F)(F)F)C(F)(F)F)cc5C4=O)cc3)cc2)cc1 (repeat unit)	0.25
*c1ccc(N(c2ccc(OC)cc2)c2ccc(N3C(=O)c4ccc(C(c5ccc6c(c5)C(=O)N(*)C6=O)(C(F)(F)F)C(F)(F)F)cc4C3=O)cc2)cc1 (repeat unit)	0.63
*OC(=O)c1ccc(C(=O)Oc2ccc(C(C)(C)c3ccc(O*)c(C)c3)cc2C)cc1 (repeat unit)	0.05
*c1ccc(Oc2ccc(C(c3ccc(Oc4ccc(N5C(=O)c6ccc(C(=O)c7ccc8c(c7)C(=O)N(*)C8=O)cc6C5=O)cc4C(F)(F)F)cc3)(C(F)(F)F)C(F)(F)F)cc2)c(C(F)(F)F)c1 (repeat unit)	0.39
*CCC[Si](*)(C)C (repeat unit)	0.98
*C(=C(*)c1ccc2c(c1)C(C)(C)CC2(C)C)c1ccc(C)cc1 (repeat unit)	3.76
*=CC1CC(C=*)C(COS(=O)(=O)c2ccc(C)cc2)C1 (repeat unit)	-0.43
*Oc1ccc(C2(c3ccc(Oc4ccc(S(=O)(=O)c5ccc(*)cc5)cc4)cc3)C3CC4CC(C3)CC2C4)cc1 (repeat unit)	0.27
*CC(C#N)(C#N)CC(*)OC(C)=O (repeat unit)	-0.80

###

endpoint: O2 permeability (Barrer)

molecule	endpointUnit	observed
*c1ccc(-c2ccc(Oc3ccc4c(c3)C3(CC4(C)C)CC(C)(C)c4ccc(Oc5ccc(-c6ccc(N7C(=O)c8ccc(Oc9ccc%10c(c9)C(=O)N(*)C%10=O)cc8C7=O)cc6)cc5C(F)(F)F)cc43)c(C(F)(F)F)c2)cc1 (repeat unit)	Barrer	13.1
*Oc1ccc(C(C)(c2ccccc2)c2ccc(Oc3ccc(S(=O)(=O)c4ccc(*)cc4)cc3)cc2)cc1 (repeat unit)	Barrer	1.56
*c1ccc(-c2nc3cc(-c4ccc5[nH]c(*)nc5c4)ccc3[nH]2)cc1 (repeat unit)	Barrer	0.004
*Oc1ccc(S(=O)(=O)c2ccc(Oc3ccc(C(C)(C)c4cccc(*)c4)cc3)cc2)cc1 (repeat unit)	Barrer	0.39
*c1ccc(N(c2ccc(N3C(=O)c4ccc(C(c5ccc6c(c5)C(=O)N(*)C6=O)(C(F)(F)F)C(F)(F)F)cc4C3=O)cc2)c2ccc(N(c3ccc(OC)cc3)c3ccc(OC)cc3)cc2)cc1 (repeat unit)	Barrer	2.94
*Oc1ccc(C(C)(C)c2ccc(Oc3ccc4c(c3)C(=O)N(c3ccc(N5C(=O)c6ccc(*)cc6C5=O)cc3)C4=O)cc2)cc1 (repeat unit)	Barrer	0.4
*c1ccc(-c2ccc(N3C(=O)c4ccc(C(=O)Oc5ccc(C(c6ccc(OC(=O)c7ccc8c(c7)C(=O)N(*)C8=O)cc6)(C(F)(F)F)C(F)(F)F)cc5)cc4C3=O)cc2)cc1 (repeat unit)	Barrer	0.348
*CC(*)c1ccc(Cl)cc1 (repeat unit)	Barrer	1.2
*c1ccc(Oc2cccc(N3C(=O)c4ccc(C(c5ccc6c(c5)C(=O)N(*)C6=O)(C(F)(F)F)C(F)(F)F)cc4C3=O)c2)cc1 (repeat unit)	Barrer	1.57
*c1ccc2c(c1)C(=O)n1c-2nc2ccc(Oc3ccc4c(c3)nc3n4C(=O)c4ccc(*)cc4-3)cc21 (repeat unit)	Barrer	0.24
*/C=C/C1CC(*)CC1[Si](C)(C)C[Si](C)(C)C (repeat unit)	Barrer	16
*Oc1cccc2c(Oc3ccc(S(=O)(=O)c4ccc(*)cc4)cc3)cccc12 (repeat unit)	Barrer	0.42
*CC(*)(C)C(=O)OCCOCC (repeat unit)	Barrer	1.45
*c1ccc(Cc2ccc(N3C(=O)c4ccc(Oc5ccc(Oc6ccc7c(c6)C(=O)N(*)C7=O)cc5)cc4C3=O)cc2)cc1 (repeat unit)	Barrer	0.242
*c1cc2c(cc1C)-c1cc(C)c(N3C(=O)c4ccc(S(=O)(=O)c5ccc6c(c5)C(=O)N(*)C6=O)cc4C3=O)cc1S2(=O)=O (repeat unit)	Barrer	3.29
*CC1CC(C*)C2C1C([Si](O[Si](C)(C)C)(O[Si](C)(C)C)O[Si](C)(C)C)C2[Si](O[Si](C)(C)C)(O[Si](C)(C)C)O[Si](C)(C)C (repeat unit)	Barrer	220
*C(C)=C(*)CC(C)C (repeat unit)	Barrer	245
*Oc1ccc(Oc2cccc(*)c2C#N)c(-c2cccc(C(F)(F)F)c2)c1 (repeat unit)	Barrer	0.87
*c1ccc(N(c2ccccc2)c2ccc(N3C(=O)c4ccc(C(c5ccc6c(c5)C(=O)N(*)C6=O)(C(F)(F)F)C(F)(F)F)cc4C3=O)cc2)cc1 (repeat unit)	Barrer	0.69
*O[Si](*)(C)CCCCCCCC (repeat unit)	Barrer	196
*Oc1ccc(C2(c3ccc(OC(=O)c4cccc(C(*)=O)c4)cc3)c3ccccc3-c3ccccc32)cc1 (repeat unit)	Barrer	3.92
*c1ccc(C(c2ccc(N3C(=O)c4ccc(-c5ccc6c(c5)C(=O)N(*)C6=O)cc4C3=O)cc2)(C(F)(F)F)C(F)(F)F)cc1 (repeat unit)	Barrer	5.22
*Oc1ccc(Oc2ccc(C(=O)c3ccc(*)cc3)cc2)cc1C(C)(C)C (repeat unit)	Barrer	1.39
*c1cc(C(c2ccc(C)c(-n3c(=O)c4cc5oc6cc7c(cc6oc5cc4c3=O)C3(CC(C)(C)c4cc5oc6cc8c(=O)n(*)c(=O)c8cc6oc5cc43)CC7(C)C)c2)(C(F)(F)F)C(F)(F)F)ccc1C (repeat unit)	Barrer	39
*Oc1ccc(Oc2cccc(*)c2C#N)c(-c2cc(C)cc(C)c2)c1 (repeat unit)	Barrer	0.94
*CC(*)OC1CC2CC1C1CCCC21 (repeat unit)	Barrer	3.06
*Oc1ccc(S(=O)(=O)c2ccc(Oc3ccc(C(C)(C)c4ccc(*)c(C(O)(C(F)(F)F)C(F)(F)F)c4)cc3C(O)(C(F)(F)F)C(F)(F)F)cc2)cc1 (repeat unit)	Barrer	1.5
*C(=C(*)c1ccc(C(C)(C)C)cc1)c1ccc(O)cc1 (repeat unit)	Barrer	82
